Data credit: PubChem BioAssay (NCI)

Tested on: CCRF-CEM leukemia
Assay: NCI-60 one-dose screen, 48 h (100 = growth as untreated, 0 = no growth, -100 = all killed)
Conditions: 10 µM unless noted
Compounds without any hit were thinned out: in the full panel of roughly 83,000, 20% have a hit. The source made the active and inactive calls. How the source made its calls: active means growth percent below 10; inactive means the rest.
property-name: growth

Example entries and their recorded answers appear below.
>  <molecule>
Nc1nc(-c2ccccc2)nc(N)c1N=O

>  <target-entity>
CCRF-CEM leukemia

>  <observed-measurement>
34.8% (inactive)

$$$$
>  <molecule>
O=C(/C=C/C(Cl)(Cl)Cl)Nc1ccc(Cl)cc1

>  <target-entity>
CCRF-CEM leukemia

>  <observed-measurement>
73.2% (inactive)

$$$$
>  <molecule>
Nc1ccc(C(=O)/C=C/c2ccccc2)cc1

>  <target-entity>
CCRF-CEM leukemia

>  <observed-measurement>
58.7% (inactive)

$$$$

Request: Which growth is reported for this molecule? CCCCCCCCCCCC1N=C(N)N=C(N)N1c1cccc(Br)c1 (stereo not drawn)
Result: -15.1% (active)

Request: How about this molecule: CC(=O)OC1CC2CCC1(C)C2(C)C (stereo not drawn)
Result: -45% (active)

----------
Test system: SW-620 colon
Assay: NCI-60 one-dose screen, 48 h (100 = growth as untreated, 0 = no growth, -100 = all killed)
Conditions: 10 µM unless noted
About 83,000 compounds went through this panel and 20% of them were active in at least one assay; those are over-represented in the sample as a whole. *1 amine or outer side, *2 acyl side, *3 side chain or, on linkers, in order; H or OH if unused. Where a SMILES comes first, the peptide text is derived from it. Bridges are numbered along the chain shown (N, C = ends). Roman numbers before positions name the chains, in order. [ ]: non-standard residue; d: D form. The star is where a group is joined. Actinocin(1to9) = Cc1c2oc3c(C)ccc(C(=O)[*:2])c3nc-2c(C(=O)[*:1])c(N)c1=O; X5 = CCC(=O)CC1CC(C)CC(C(=O)[*:2])N1[*:1]; NMeV = CN[CH](C(=O)O)C(C)C; X4 = CCCCCCCCC(C)C(=O)*; Aib = CC(C)(N)C(=O)O; X6 = CC(CN(C)CCO)N*; Sar = CNCC(=O)O
Label TRUE when growth < 20%; otherwise FALSE.

>  <compound>
Fc1ccc(NCCS)cc1

>  <label-value>
FALSE

$$$$
>  <compound>
O=C1CSC(=S)N1Cc1cccnc1

>  <label-value>
TRUE

$$$$
>  <compound>
Cn1ccc(=Nc2ccc(NC(=O)c3ccc(N=c4ccn(C)c5ccc([N+](=O)[O-])cc45)cc3)cc2)cc1

>  <label-value>
FALSE

$$$$
>  <compound>
CCC(C)C1NC(=O)C(NC(=O)c2c3nc4c(C(=O)NC5C(=O)NC(C(C)CC)C(=O)N6CCCC6C(=O)N(C)CC(=O)N(C)C(C(C)C)C(=O)OC5C)ccc(C)c4oc-3c(C)c(=O)c2N)C(C)OC(=O)C(C(C)C)N(C)C(=O)CN(C)C(=O)C2CCCN2C1=O (stereo unspecified) (I: TIP[Sar][NMeV] / II: TIP[Sar][NMeV]; ester I:1-I:C, II:1-II:C; linker I:N-II:N via Actinocin(1to9); configuration not given here)

>  <label-value>
TRUE

$$$$
>  <compound>
CCCCCCCCC(C)C(=O)N1CCCC1C(=O)N1C(CC(=O)CC)CC(C)CC1C(=O)NC(C)C(=O)NC(C)(C)C(=O)NC(C)(C)C(=O)NC(C(=O)NC(C)C(=O)NC(C)(C)C(=O)NC(C)(C)C(=O)NC(C)CN(C)CCO)C(C)CC (stereo unspecified) (X4-P[X5]A[Aib][Aib]IA[Aib][Aib]-X6; configuration not given here)

>  <label-value>
TRUE

$$$$

Note: attention shifts to another entry.
Request: Hello, I'm reviewing records and need to know if growth of "CCCC[n+]1c(/C=C\c2c(OC)cc(OC)cc2OC)ccc2ccccc21" is below 20%. Could you check?
Result: TRUE

----------
Tested on: OVCAR-5 ovarian
Test: NCI-60 one-dose screen, 48 h (100 = growth as untreated, 0 = no growth, -100 = all killed)
Conditions: 10 µM unless noted
The panel holds about 83,000 compounds, 20% with a hit somewhere; the sample as a whole holds those more often.
property-name: growth (%)
State the answer as a number, implicitly in %.

Some entries whose results are on file:
>  <compound>
O/N=C1\c2ccccc2-c2ccc(F)cc21

>  <growth (%)>
93.8

$$$$
>  <compound>
CN(C)c1ccc(/C=C/c2ccnc3ccccc23)cc1

>  <growth (%)>
84.4

$$$$
>  <compound>
Cc1cc(C(N)=O)cc(C)c1C(=O)OCCCl

>  <growth (%)>
108

$$$$
>  <compound>
O=C(/C=C/C(Cl)(Cl)Cl)Nc1ccc(Cl)cc1

>  <growth (%)>
93.7

$$$$
>  <compound>
CC1=CC(=O)C=CC1(C)C(Cl)(Cl)Cl (stereo unspecified)

>  <growth (%)>
101

$$$$

Request: // lookup growth for CCCc1cc(=O)oc2c3c(c4c(c12)OC(C)(C)CC4)OC(C)[C@H](C)[C@@H]3O (stereo partly specified)
Result: 86

----------
Test system: M14 melanoma
Experiment: NCI-60 one-dose screen, 48 h (100 = growth as untreated, 0 = no growth, -100 = all killed)
Settings: 10 µM unless noted
This is part of a sample that, as a whole, favours compounds with a hit. Of some 83,000 tested, about 20% had one in any assay.
Label T when growth is strictly below 70%; at or above that, label F.

Request: Is growth strictly under 70% for the entry "Oc1ccc(Cl)cc1C(c1cc(Cl)ccc1O)C(Cl)(Cl)Cl" ?
Result: T

Request: Now this one: "O=C1C=CC(=O)N1c1ccc(O)cc1"
Result: F

----------
Tested on: NCI-H226 lung
Assay: NCI-60 one-dose screen, 48 h
Conditions: 10 µM unless noted
About 83,000 compounds went through this panel and 20% of them were active in at least one assay; those are over-represented in the sample as a whole. Calls of active or inactive are those of the source. The calls were made as follows: active = growth percent below 10; inactive = the rest.
Mark one answer only. Choices: active, inactive

Some entries whose results are on file:
>  <compound>
CN=C(N)N/N=C(\c1ccccc1)c1ccc(Br)cc1

>  <label-value>
inactive

$$$$
>  <compound>
CCCCCCCCCCCCN1C(C)=CS/C1=C\C=C\c1scc(C)[n+]1CCCCCCCCCCCC

>  <label-value>
inactive

$$$$
>  <compound>
Fc1ccc(NCCS)cc1

>  <label-value>
inactive

$$$$
>  <compound>
CN1CCC(c2ccccc2)(c2ccccc2)C(=O)C1

>  <label-value>
inactive

$$$$
>  <compound>
O=C1C(=O)c2cccnc2-c2ncccc21

>  <label-value>
active

$$$$
>  <compound>
CC(C)N=C(N)/N=C(\N)Nc1ccc2ccc3ccccc3c2c1

>  <label-value>
active

$$$$

Request: Lab log entry: "O=C(NOC(=O)c1ccccc1)c1ccccc1" — outcome as called in the assay?
Result: inactive

Request: Another compound to check: "c1ccc(-c2cc3cc4ccccc4cn3c2)cc1"
Result: inactive

Request: Same thing, different compound: CCCCCCCCCCCCCCCCCC[S+](C)CC (stereo not drawn)
Result: inactive

Request: And the next one, "S=C(SSC(=S)N1CCOCC1)N1CCOCC1" ?
Result: inactive

Request: Proceed to "O=C1c2ccccc2Cc2cccc(Cl)c21"
Result: inactive

Request: Ok, now "COC(=O)[C@]1(C)CCC[C@]2(C)c3ccc(C(C)C)cc3C(=O)[C@@H](Br)[C@@H]12"
Result: inactive

Request: Can you handle "O=[N+]([O-])c1ccc(C(Br)c2ccc([N+](=O)[O-])cc2)cc1" next?
Result: inactive

----------
Tested on: OVCAR-3 ovarian
Assay: NCI-60 one-dose screen, 48 h (100 = growth as untreated, 0 = no growth, -100 = all killed)
Conditions: 10 µM unless noted
About 83,000 compounds went through this panel and 20% of them were active in at least one assay; those are over-represented in the sample as a whole. Calls of active or inactive are those of the source. Rule for the calls: active = growth percent below 10; inactive = the rest.
property-name: growth

>  <compound>
Cc1oc2c(C)c3oc(=O)cc(C)c3cc2c1CCl

>  <observed-measurement>
61.6% (inactive)

$$$$
>  <compound>
OC(c1cc(C23CC4CC(CC(C4)C2)C3)nc2c(Cl)cc(Cl)cc12)C1CCCCN1 (stereo not given)

>  <observed-measurement>
-89.9% (active)

$$$$
>  <compound>
CC(O)C(O)C(O)C(O)C(O)C(=O)NNc1ccccc1 (stereo not given)

>  <observed-measurement>
99.4% (inactive)

$$$$
>  <compound>
CC(=O)C1Cc2ccccc2C1=O (stereo not given)

>  <observed-measurement>
112% (inactive)

$$$$

Now, please, on to the next compound.
Request: Look at this compound and give its reported growth. "CC(C)(C)CC(C)(C)c1ccc(OCCOCCSC(=N)N)cc1"
Result: 25.3% (inactive)
